Listed here are molecules together with their documented ΔTm at 10 µM.
Target: ZmDRIK1-R187-P492 (Zea mays, UniProt C0P4K9)
Construct: kinase domain, R187-P492
Experiment: biochemical
Conditions: read-out: dTm B, DSF, Boltzmann fit, 0.1% DMSO
Numeric only. Scale: °C

Molecule | Measure Name | Number
CCCNC(=O)Nc1ccc(Oc2ncnc3cc(OC)c(OC)cc23)cc1Cl | ΔTm at 10 µM | -0.332
CN1CCN(C2CCN(C(=O)Nc3cc(Oc4ccc(NC(=O)C5(C(=O)Nc6ccc(F)cc6)CC5)c(F)c4)ccn3)CC2)CC1 [Golvatinib (E7050)] | ΔTm at 10 µM | -0.232

Let us move to another entry and its ΔTm at 10 µM.
What measured ΔTm at 10 µM goes with "Cc1cc(N2CCOCC2)cc2[nH]c(-c3c(NC[C@@H](O)c4cccc(Cl)c4)cc[nH]c3=O)nc12" ?
-0.284

* * *

Target: ZmDRIK1-K217-S514 (Zea mays)
Construct: kinase domain, K217-S514
Sequence (C0P4K9 1-514): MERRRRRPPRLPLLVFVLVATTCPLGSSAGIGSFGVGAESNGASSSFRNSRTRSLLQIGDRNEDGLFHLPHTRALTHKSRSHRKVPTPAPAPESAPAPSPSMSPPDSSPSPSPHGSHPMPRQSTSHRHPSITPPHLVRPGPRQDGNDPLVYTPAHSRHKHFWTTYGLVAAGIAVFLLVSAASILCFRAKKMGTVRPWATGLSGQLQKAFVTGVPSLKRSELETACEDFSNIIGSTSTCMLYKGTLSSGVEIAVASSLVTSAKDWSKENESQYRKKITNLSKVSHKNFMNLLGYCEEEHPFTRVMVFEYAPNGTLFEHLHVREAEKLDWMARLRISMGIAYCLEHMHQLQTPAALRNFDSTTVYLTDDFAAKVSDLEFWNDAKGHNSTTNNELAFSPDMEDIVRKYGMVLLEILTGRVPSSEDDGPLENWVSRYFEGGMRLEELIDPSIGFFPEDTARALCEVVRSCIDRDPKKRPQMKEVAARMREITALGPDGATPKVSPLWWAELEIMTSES
Assay: biochemical
Settings: read-out: dTm B, sheet ZmDRIK1-K217-S514;; DSF, Boltzmann fit, 0.1% DMSO
Counter-ions that a name gives are not always drawn.
Measure Name: ΔTm at 10 µM (°C)
Numeric only. Scale: °C

Some solved cases for reference:
Molecule | Measure Name | Unit Annotation | Number
O=C(NC1CCNCC1)c1n[nH]cc1NC(=O)c1c(Cl)cccc1Cl | ΔTm at 10 µM | °C | -0.106
Cc1cnc(-c2cnc(NCCNc3ccc(C#N)cn3)nc2-c2ccc(Cl)cc2Cl)[nH]1 [CHIR-99021 (CT99021) HCl] | ΔTm at 10 µM | °C | -0.494
COc1ccc(COc2cc3oc(=O)c4cc(C(C)O)ccc4c3cc2OC)cc1 (centres unmarked) | ΔTm at 10 µM | °C | -0.134
Cn1cc(-c2[nH]c3cc(NC(=O)[C@H](N)C4CCCCC4)cc4c3c2C=NNC4=O)cn1 | ΔTm at 10 µM | °C | -0.328

Lab note: need ΔTm at 10 µM with ZmDRIK1-K217-S514 (Zea mays) for entry "CN1CCN(CCOc2cc(OC3CCOCC3)c3c(Nc4c(Cl)ccc5c4OCO5)ncnc3c2)CC1" , please look it up.
-0.253

What do you have for "CO[C@H]1C[C@@H]2CC[C@@H](C)[C@@](O)(O2)C(=O)C(=O)N2CCCC[C@H]2C(=O)O[C@H]([C@H](C)C[C@@H]2CC[C@@H](OP(C)(C)=O)[C@H](OC)C2)CC(=O)[C@H](C)/C=C(\C)[C@@H](O)[C@@H](OC)C(=O)[C@H](C)C[C@H](C)/C=C/C=C/C=C/1C" ?
-0.213

What do you have for COc1cc(Nc2c(C#N)cnc3cc(OCCCN4CCN(C)CC4)c(OC)cc23)c(Cl)cc1Cl [Bosutinib (SKI-606)] ?
-0.473

What do you have for "CC(C)(C)c1cc(NC(=O)Nc2ccc(-c3cn4c(n3)sc3cc(OCCN5CCOCC5)ccc34)cc2)no1" ?
-1.21

* * *

Target: ZmDRIK1-K217-S514 (Zea mays, UniProt C0P4K9)
Construct: kinase domain, K217-S514
Sequence (C0P4K9 1-514): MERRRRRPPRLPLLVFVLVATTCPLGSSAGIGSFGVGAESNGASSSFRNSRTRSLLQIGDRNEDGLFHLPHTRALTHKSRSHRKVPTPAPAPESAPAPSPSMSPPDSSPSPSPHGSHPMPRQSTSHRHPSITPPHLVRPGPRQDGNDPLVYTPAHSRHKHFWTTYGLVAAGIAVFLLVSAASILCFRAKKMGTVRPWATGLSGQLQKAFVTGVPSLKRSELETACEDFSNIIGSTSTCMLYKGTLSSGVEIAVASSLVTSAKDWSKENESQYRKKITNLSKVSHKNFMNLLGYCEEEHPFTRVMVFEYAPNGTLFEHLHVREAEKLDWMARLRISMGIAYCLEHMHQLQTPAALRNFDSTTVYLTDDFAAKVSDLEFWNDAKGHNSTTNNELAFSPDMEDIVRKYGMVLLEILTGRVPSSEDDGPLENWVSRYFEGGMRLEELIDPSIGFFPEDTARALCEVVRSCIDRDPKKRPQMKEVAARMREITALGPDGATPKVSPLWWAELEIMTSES
Assay: biochemical
Conditions: read-out: dTm B, sheet ZmDRIK1-K217-S514;; DSF, Boltzmann fit, 0.1% DMSO
Measure Name: ΔTm at 10 µM (°C)
Numeric only. Scale: °C

Some solved cases for reference:
Compound | ΔTm at 10 µM / °C
Cc1c(NC(=O)c2ccc(C(C)(C)C)cc2)cccc1-c1cn(C)c(=O)c(Nc2ccc(C(=O)N3CCOCC3)cc2)n1 [CGI1746] | -0.561
COc1ccc(F)c(F)c1C(=O)c1cnc(NC2CCN(S(C)(=O)=O)CC2)nc1N [R547] | -0.339

Let us move to another entry and its ΔTm at 10 µM.
Lab note: need ΔTm at 10 µM with ZmDRIK1-K217-S514 (Zea mays, UniProt C0P4K9) for entry COc1cc2ncc(-c3ccccc3)nc2cc1OC [Tyrphostin AG 1296] , please look it up.
-0.375

* * *

Target: ZmDRIK1-K217-S514 (Zea mays, UniProt C0P4K9)
Construct: kinase domain, K217-S514
Sequence (C0P4K9 1-514): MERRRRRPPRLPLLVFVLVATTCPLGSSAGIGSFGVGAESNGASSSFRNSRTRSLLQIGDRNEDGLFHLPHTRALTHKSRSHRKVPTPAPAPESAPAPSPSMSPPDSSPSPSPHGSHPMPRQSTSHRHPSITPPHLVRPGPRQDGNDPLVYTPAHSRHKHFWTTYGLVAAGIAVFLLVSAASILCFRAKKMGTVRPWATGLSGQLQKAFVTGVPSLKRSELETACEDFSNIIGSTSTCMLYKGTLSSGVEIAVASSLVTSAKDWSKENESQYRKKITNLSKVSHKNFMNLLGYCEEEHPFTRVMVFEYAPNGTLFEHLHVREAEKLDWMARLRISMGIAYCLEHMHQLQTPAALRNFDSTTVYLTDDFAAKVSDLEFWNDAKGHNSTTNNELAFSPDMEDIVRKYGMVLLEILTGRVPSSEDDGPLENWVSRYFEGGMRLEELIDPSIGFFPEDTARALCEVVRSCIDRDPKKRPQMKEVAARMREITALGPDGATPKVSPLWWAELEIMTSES
Test: biochemical
Conditions: read-out: dTm B, sheet ZmDRIK1-K217-S514;; DSF, Boltzmann fit, 0.1% DMSO
Listed here are compounds together with their documented ΔTm at 10 µM.
Numeric only. Scale: °C

Some solved cases for reference:
Compound | ΔTm at 10 µM [°C]
Oc1cc(O)cc(/C=C/c2ccc(O)c(O)c2)c1 | 1.1
N#CC1(c2ccc(NC(=O)c3cccnc3NCc3ccncc3)cc2)CCCC1 | -0.311
COc1c(C)c(C(=O)c2ccc(N)c(C(=O)O)c2)n2ccccc12 [SSR128129E] | -0.406
COc1cc2c(N3CCN(C(=O)Nc4ccc(OC(C)C)cc4)CC3)ncnc2cc1OCCCN1CCCCC1 | -0.303
CCc1cc(Nc2nccc(-c3c(-c4ccc(OC)c(C(=O)Nc5c(F)cccc5F)c4)nc4ccccn34)n2)c(OC)cc1N1CCC(N2CCN(S(C)(=O)=O)CC2)CC1 [GSK1904529A] | -0.386

Let us move to another entry and its ΔTm at 10 µM.
Lab note: need ΔTm at 10 µM with ZmDRIK1-K217-S514 (Zea mays, UniProt C0P4K9) for entry "COc1ccc(CNC(=O)Nc2ncc([N+](=O)[O-])s2)cc1" , please look it up.
-0.49

* * *

Target: ZmDRIK1-K217-P492 (Zea mays)
Construct: kinase domain, K217-P492
Assay: biochemical
Settings: read-out: dTm B, sheet ZmDRIK1-K217-P492;; DSF, Boltzmann fit, 0.1% DMSO
Measure Name: ΔTm at 10 µM (°C)
Numeric only. Scale: °C

Some solved cases for reference:
Chemical Smiles | Target | Number
NC(=O)Nc1cc(-c2cccc(F)c2)sc1C(=O)N[C@H]1CCCNC1 | ZmDRIK1-K217-P492 (Zea mays) | -0.323
C=CC(=O)Nc1ccc2ncnc(Nc3ccc(OCc4cccc(F)c4)c(Cl)c3)c2c1 | ZmDRIK1-K217-P492 (Zea mays) | -1.48
COc1ccc(-c2cc3c(C)nc(N)nc3n([C@H]3CC[C@H](OCCO)CC3)c2=O)cn1 | ZmDRIK1-K217-P492 (Zea mays) | -0.953
Cc1cc(NC(=O)c2cccc(NC(=O)/C=C/CN(C)C)c2)ccc1Nc1nccc(-c2cccnc2)n1 | ZmDRIK1-K217-P492 (Zea mays) | -1.16
C=CC(=O)Nc1cccc(Nc2nc(Nc3ccc(N4CCN(C(C)=O)CC4)cc3OC)ncc2C(F)(F)F)c1 | ZmDRIK1-K217-P492 (Zea mays) | -0.85

Lab note: need ΔTm at 10 µM with ZmDRIK1-K217-P492 (Zea mays) for entry "CCCCOc1c(C(=O)c2c(F)cc(C)cc2F)c[nH]c2nncc1-2" , please look it up.
-1.05

What do you have for "COc1ccc(-c2ccc3c(N4CCOC[C@@H]4C)nc(N4CCOC[C@@H]4C)nc3n2)cc1CO" ?
-0.668

What do you have for "Cc1c(NC(=O)OC[C@@H]2COCCN2)cn2ncnc(Nc3ccc4c(cnn4Cc4cccc(F)c4)c3)c12" ?
-0.766

What do you have for "NC(=O)c1cnc(N[C@@H]2CCCC[C@@H]2N)nc1Nc1cccc(-n2nccn2)c1" ?
-0.348

What do you have for "COC(=O)[C@]12CCC(C)(C)C[C@H]1[C@H]1C(=O)C=C3[C@@]4(C)C=C(C#N)C(=O)C(C)(C)[C@@H]4CC[C@@]3(C)[C@]1(C)CC2" ?
-4.07
